- studySystem: T1, human IgE (human, UniProt P01854 1-428)
- T1 construct: written under the same molecule; also called IgE (Abcam ab65866); soluble IgE
- T1 sequence (P01854 other isoform, or with tags, fused parts or gaps limits assumed, form in doubt): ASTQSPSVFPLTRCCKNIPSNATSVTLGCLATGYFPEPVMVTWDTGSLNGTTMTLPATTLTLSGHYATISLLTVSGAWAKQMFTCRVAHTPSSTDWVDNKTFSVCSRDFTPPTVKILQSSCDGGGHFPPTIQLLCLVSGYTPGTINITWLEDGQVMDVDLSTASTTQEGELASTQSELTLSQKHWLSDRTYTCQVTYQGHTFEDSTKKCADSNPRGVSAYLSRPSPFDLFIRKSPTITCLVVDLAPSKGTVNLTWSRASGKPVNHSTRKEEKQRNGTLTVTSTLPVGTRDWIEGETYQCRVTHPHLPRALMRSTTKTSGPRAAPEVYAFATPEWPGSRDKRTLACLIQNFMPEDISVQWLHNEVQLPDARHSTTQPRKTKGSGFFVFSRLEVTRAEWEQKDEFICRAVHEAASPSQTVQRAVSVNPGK
- protocolDetails: ELISA, clone lysate on IgE-coated plate
measure: R1 Screening OD450
Just the number, please, no unit attached.

6F11 (VHH, also called hzB10v40 VHH, CDR1 site 6 S to R) VHH: EVQLLESGGGEVQPGGSLRLSCVASGLTFSRYNMGWLRQAPGKEREFVGLSGSSSTSTYYAESVKGRFTISRDNAKNTVYLQMTSLRAEDTAVYYCAARRLLSTYWSDRSWDFWGQGTLVTVEP | 0.885
8F11 (VHH, also called hzB10v40 VHH, CDR1 site 8 N to T) VHH: EVQLLESGGGEVQPGGSLRLSCVASGLTFSSYTMGWLRQAPGKEREFVGLSGSSSTSTYYAESVKGRFTISRDNAKNTVYLQMTSLRAEDTAVYYCAARRLLSTYWSDRSWDFWGQGTLVTVEP | 0.922
6H1 (VHH, also called hzB10v40 VHH, CDR1 site 6 S to P) VHH: EVQLLESGGGEVQPGGSLRLSCVASGLTFSPYNMGWLRQAPGKEREFVGLSGSSSTSTYYAESVKGRFTISRDNAKNTVYLQMTSLRAEDTAVYYCAARRLLSTYWSDRSWDFWGQGTLVTVEP | 0.908

Here is another binder to look at.
Task: For the binder shown here, 6A9 (VHH, also called hzB10v40 VHH, CDR1 site 6 S to E) VHH: EVQLLESGGGEVQPGGSLRLSCVASGLTFSEYNMGWLRQAPGKEREFVGLSGSSSTSTYYAESVKGRFTISRDNAKNTVYLQMTSLRAEDTAVYYCAARRLLSTYWSDRSWDFWGQGTLVTVEP , give the reported R1 Screening OD450.
Result: 0.852
